- system_tested: human PCSK9 (Homo sapiens, UniProt Q8NBP7)
- Sequence (Q8NBP7 153-692): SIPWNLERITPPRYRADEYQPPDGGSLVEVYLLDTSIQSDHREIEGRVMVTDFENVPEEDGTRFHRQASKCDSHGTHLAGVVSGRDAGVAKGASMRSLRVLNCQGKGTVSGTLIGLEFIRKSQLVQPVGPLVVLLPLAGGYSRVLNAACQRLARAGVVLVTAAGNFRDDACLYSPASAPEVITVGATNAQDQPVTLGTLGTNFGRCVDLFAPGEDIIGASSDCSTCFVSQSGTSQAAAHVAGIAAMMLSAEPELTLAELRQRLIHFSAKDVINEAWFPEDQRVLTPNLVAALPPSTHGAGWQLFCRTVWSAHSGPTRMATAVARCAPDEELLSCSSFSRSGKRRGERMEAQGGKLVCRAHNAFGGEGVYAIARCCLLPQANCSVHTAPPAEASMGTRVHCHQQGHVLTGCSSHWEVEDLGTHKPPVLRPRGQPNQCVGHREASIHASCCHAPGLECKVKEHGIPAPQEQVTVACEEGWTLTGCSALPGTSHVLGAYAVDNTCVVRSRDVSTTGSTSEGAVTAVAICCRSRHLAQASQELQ
- Sequence (Q8NBP7 31-152 partner limits assumed): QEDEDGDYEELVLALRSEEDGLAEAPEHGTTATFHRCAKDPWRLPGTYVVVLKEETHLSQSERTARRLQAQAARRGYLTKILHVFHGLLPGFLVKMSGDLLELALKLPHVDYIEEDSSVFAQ
- test: PCSK9 ligand binding TR-FRET assay (interference with binding of human PCSK9 to human LDLR)
- assay_context: PCSK9 FRET assay, efficacy (Amax); 100% = 1 uM unlabeled human PCSK9, 0% = DMSO
recorded_endpoint: Max % inhibition (%)

Completed entries (count: 6):
## Task Requested read-out Max % inhibition, target or system human PCSK9 (Homo sapiens, UniProt Q8NBP7), entry COC[C@@H]1NC(=O)[C@H](C)N(Cc2c(F)cc(F)cc2Oc2ccc(-c3cnc(CN(C)C)n3C)cc2)C(=O)C[C@@H](Cc2ccccc2)C(=O)N(C)[C@H]2CCCC[C@@H]2NC(=O)C[C@H](Cc2ccc(Cl)cc2)N(C)C1=O [Compound 208]
## Result 87.45

## Task Now the same for COC[C@@H]1NC(=O)[C@H](CCCN2CCOCC2)N(Cc2ccc(Cl)cc2Oc2ccc(-c3cnc(CN(C)C)n3C)cc2)C(=O)C[C@@H](Cc2ccccc2)C(=O)N(C)[C@@H](C)CNC(=O)C[C@H](Cc2ccc(Cl)cc2)N(C)C1=O [Compound 158]
## Result 98.98

## Task Now the same for C[C@H]1CNC(=O)C[C@H](Cc2ccc(Cl)cc2)N(C)C(=O)[C@H](Cc2nnn[nH]2)NC(=O)[C@H](C)N(Cc2ccc(Cl)cc2Oc2ccc(-c3cnc(CN(C)C)n3C)cc2)C(=O)C[C@@H](Cc2ccccc2)C(=O)N1C [Compound 148]
## Result 94.67

## Task Now the same for COC[C@@H]1NC(=O)[C@H](C)N(Cc2ccc(Cl)cc2Oc2ccc(-c3cnc([C@@H](C)N4CCCC4)n3C)cc2)C(=O)C[C@@H](Cc2ccccc2)C(=O)N(C)[C@H]2CCCC[C@@H]2NC(=O)C[C@H](Cc2ccc(Cl)cc2)N(C)C1=O [Compound 152]
## Result 107.64

## Task Now the same for CCC[C@@H](O)[C@@H]1CC(=O)N(Cc2ccc(Cl)cc2Oc2ccc(-c3cnc(CN(C)C)n3C)cc2)[C@@H](C)C(=O)N[C@@H](COC)C(=O)N(C)[C@@H](Cc2ccc(Cl)cc2)CC(=O)NC[C@H](C)N(C)C1=O [Compound 75]
## Result 103.69

## Task Now the same for C=CC[C@@H]1CC(=O)N(Cc2ccc(Cl)cc2Oc2ccc(-c3cnc(CN(C)C)n3C)cc2)[C@@H](CCCN2CCOCC2)C(=O)N[C@@H](COC)C(=O)N(C)[C@@H](Cc2ccc(Cl)cc2)CC(=O)N[C@H]2CCCC[C@@H]2N(C)C1=O [Compound 277]
## Result 83.22

(a) COC[C@@H]1NC(=O)[C@H](C)N(Cc2ccc(Cl)cc2Oc2ccc(-c3cnc4n3CCN(C(=O)C(C)C)C4)cc2)C(=O)C[C@@H](Cc2ccccc2)C(=O)N(C)[C@@H](C)CNC(=O)C[C@H](Cc2ccc(Cl)cc2)N(C)C1=O [Compound 132]
(b) C[C@H]1C(=O)N[C@@H](COC(=O)C(C)(C)C)C(=O)N(C)[C@@H](Cc2ccc(Cl)cc2)CC(=O)N[C@H]2CCCC[C@@H]2N(C)C(=O)[C@H](Cc2ccccc2)CC(=O)N1Cc1ccc(Cl)cc1Oc1ccc(-c2cnc(CN(C)C)n2C)cc1 [Compound 226]
## Task Hey, which is lower on measured Max % inhibition, a or b ? Answer = label.
## Result b
